- target.or.test.system: TTERecR;TTERecO (Thermoanaerobacter tengcongensis …, UniProt Q8RDI4;Q8RB48 1-199;1-247, |)
- protocol.text: SPR; SPR: 20 mM HEPES pH 7.4, 200 mM NaCl, 0.005% Tween 20, 25 C, SA chip; EMSA: 20 mM HEPES pH 7.4, 200 mM NaCl, 25 C, 30 min, 2 uM DNA
Recorded Kd, one value per entry.
The reply should contain only the number, in nM.

[[record]]
binder = "60 mer dsDNA (dsDNA) DNA 1: ATAAATATCGATGTTAAAGAGGATAAGATTTATAAAATAGCTTCTTATTTTCCTGTAGTA DNA 2: TACTACAGGAAAATAAGAAGCTATTTTATAAATCTTATCCTCTTTAACATCGATATTTAT"
value_type = "Kd"
endpoint_value = 26.4


Proceeding to the next binder to report its Kd.
The binder 60 mer ssDNA (ssDNA) DNA: ATAAATATCGATGTTAAAGAGGATAAGATTTATAAAATAGCTTCTTATTTTCCTGTAGTA showed Kd equal to 0.931

Values from paper PMC3510498
